Test system: LOX IMVI
TEST: NCI tumour cell line growth inhibition, 48 h
Activity calls are given as the source filed them. No stated cut-off is given here; in the data, active = GI50 up to about 1.1 µM and inactive = higher. Square brackets hold non-standard residues; d marks the D form. Peptide text beside a SMILES is read from it. * marks the point of attachment. AllylGly = C=CC[CH](N)C(=O)O; Boc = CC(C)(C)OC(=O)*; OtBu = CC(C)(C)O*
Outcome codes: True (active), False (inactive)

MOLECULE: C=C1CC2OC2(C(=O)O[C@H]2CCC3[C@@H]4CCC5=CC(=O)CC[C@]5(C)C4CC[C@@]32C)C1=O (stereo partly specified)
ASSIGNED_CATEGORY: False

MOLECULE: CCOC(=O)C1=NC(c2ccccc2)(c2ccccc2)OC1=C(Cl)Cl
ASSIGNED_CATEGORY: False

MOLECULE: O=C(O)CNC(=O)CO/N=C1/C(=C2/C(=O)Nc3ccccc32)Nc2ccccc21
ASSIGNED_CATEGORY: False

MOLECULE: C[C@]12CC[C@@H]3c4ccc(O)cc4CC[C@H]3[C@@H]1C/C(=C\c1ccc(C#N)cc1)C2=O
ASSIGNED_CATEGORY: False

MOLECULE: CCOC1=NC(C(F)(F)F)(C(F)(F)F)N=C(N2CCCCC2)O1
ASSIGNED_CATEGORY: False

MOLECULE: COc1c2c(cc3nc4ccccc4nc13)CC[C@H](NC(C)=O)c1cc(=O)c(SC)ccc1-2
ASSIGNED_CATEGORY: True

MOLECULE: C=CCC(NC(=O)C(CC(=O)OC(C)(C)C)NC(=O)OC(C)(C)C)C(=O)OC (stereo unspecified) (Boc-Asp(OtBu)-[AllylGly]-OMe; configuration not given here)
ASSIGNED_CATEGORY: False

MOLECULE: COc1ccccc1NS(=O)(=O)c1ccc2ncn(NS(=O)(=O)c3ccc(Cl)cc3)c(=O)c2c1
ASSIGNED_CATEGORY: False

MOLECULE: O=c1[c-](-c2ccccc2)[se]c(-c2ccccc2)[n+]1-c1ccccc1
ASSIGNED_CATEGORY: False

MOLECULE: CC(C)(c1ccc(C=O)o1)c1ccc(C(C)(C)c2ccc(C=O)o2)o1
ASSIGNED_CATEGORY: False

MOLECULE: CCCCCCCCCc1cc(=O)c2c(O)cccc2o1
ASSIGNED_CATEGORY: False

Ref: ChEMBL document CHEMBL1201862
